Biological target: GABA-A receptor; alpha-5/beta-3/gamma-2 (Homo sapiens, UniProt P18507+P28472+P31644)
Sequence (P18507 whole entry): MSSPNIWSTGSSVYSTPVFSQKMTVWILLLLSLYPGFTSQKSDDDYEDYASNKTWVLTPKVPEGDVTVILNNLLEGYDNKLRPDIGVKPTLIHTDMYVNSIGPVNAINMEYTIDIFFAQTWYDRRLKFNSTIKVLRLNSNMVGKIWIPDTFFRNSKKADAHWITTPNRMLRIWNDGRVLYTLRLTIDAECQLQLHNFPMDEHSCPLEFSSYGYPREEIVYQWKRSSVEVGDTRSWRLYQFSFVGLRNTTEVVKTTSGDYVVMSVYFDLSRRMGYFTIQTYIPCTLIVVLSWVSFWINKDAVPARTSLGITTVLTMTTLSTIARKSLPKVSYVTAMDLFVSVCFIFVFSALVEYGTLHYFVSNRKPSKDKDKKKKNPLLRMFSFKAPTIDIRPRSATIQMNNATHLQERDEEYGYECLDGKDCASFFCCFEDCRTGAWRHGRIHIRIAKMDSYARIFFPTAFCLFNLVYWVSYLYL
Sequence (P28472 whole entry): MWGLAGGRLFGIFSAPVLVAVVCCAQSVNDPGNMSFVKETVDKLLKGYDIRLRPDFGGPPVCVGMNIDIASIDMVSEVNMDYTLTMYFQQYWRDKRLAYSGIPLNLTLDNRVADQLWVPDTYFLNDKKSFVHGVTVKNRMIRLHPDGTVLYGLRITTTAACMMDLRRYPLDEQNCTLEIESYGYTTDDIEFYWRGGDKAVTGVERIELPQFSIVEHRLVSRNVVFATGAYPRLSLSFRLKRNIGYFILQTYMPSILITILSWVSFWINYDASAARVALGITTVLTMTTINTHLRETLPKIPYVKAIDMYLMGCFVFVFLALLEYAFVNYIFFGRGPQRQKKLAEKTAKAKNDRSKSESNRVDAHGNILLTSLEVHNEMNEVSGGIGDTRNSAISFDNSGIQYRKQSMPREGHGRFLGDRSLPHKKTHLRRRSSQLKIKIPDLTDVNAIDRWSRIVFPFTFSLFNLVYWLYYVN
Sequence (P31644 whole entry): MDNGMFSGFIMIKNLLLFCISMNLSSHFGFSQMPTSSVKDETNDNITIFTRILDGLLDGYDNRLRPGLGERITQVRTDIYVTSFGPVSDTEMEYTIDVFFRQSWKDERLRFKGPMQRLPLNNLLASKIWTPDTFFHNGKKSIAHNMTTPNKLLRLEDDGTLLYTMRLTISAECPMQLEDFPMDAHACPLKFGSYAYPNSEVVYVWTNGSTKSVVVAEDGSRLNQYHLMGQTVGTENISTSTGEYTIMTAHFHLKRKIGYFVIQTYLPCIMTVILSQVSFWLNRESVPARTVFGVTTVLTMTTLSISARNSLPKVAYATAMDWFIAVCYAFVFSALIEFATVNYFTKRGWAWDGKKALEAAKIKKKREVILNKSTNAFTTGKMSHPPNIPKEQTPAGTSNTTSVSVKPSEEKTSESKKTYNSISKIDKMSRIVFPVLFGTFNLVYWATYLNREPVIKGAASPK
Test: Displacement of [3H]Ro-151788 from human recombinant GABAA alpha5 in combination with beta3gamma2 expressed in L(tk-) cells
pKi: −log10 of the molar value.
Answer 0.0 if pKi is under 9, and 1.0 if it is 9 or more.

Decide: is the reported value of pKi for "N#Cc1ccccc1-c1cccc(-c2cnc3nc(C(F)(F)F)ccn23)c1" equal to or greater than 9?
1.0

Repeat with "CC(C)(O)c1ccn2c(-c3ccc(F)c(-c4ccc(F)cc4C#N)c3)cnc2n1"
1.0

Repeat with "CCn1ncnc1COc1nn2c(-c3ccccc3F)nnc2cc1C(C)(C)C"
1.0

Repeat with "Cc1ccn2c(-c3cccc(-c4ccccc4C#N)c3)cnc2n1"
1.0

Repeat with "N#Cc1ccc(F)cc1-c1cc(-c2cnc3nc(C(F)(F)F)ccn23)ccc1F"
1.0

Repeat with "Cn1ncnc1COc1nn2c(-c3cc(F)ccc3F)nnc2cc1C(C)(C)C"
0.0

Repeat with "CC(C)(O)c1ccn2c(-c3ccc(F)c(-c4cccnc4)c3)cnc2n1"
1.0

Repeat with "N#Cc1ccccc1-c1cc(-c2cnc3nc(C(F)(F)F)ccn23)ccc1F"
1.0

Repeat with "N#Cc1c(F)cccc1-c1cc(-c2cnc3nc(C(F)(F)F)ccn23)ccc1F"
0.0

Repeat with "N#Cc1cccc(F)c1-c1cc(-c2cnc3nc(C(F)(F)F)ccn23)ccc1F"
1.0

Repeat with "N#Cc1cc(F)ccc1-c1cc(-c2cnc3nc(C(F)(F)F)ccn23)ccc1F"
1.0

* * *

Give measured Efficacy for each item. Keep answers brief.
Target: GABA-A receptor; alpha-3/beta-3/gamma-2 (Homo sapiens) (UniProt P18507+P28472+P34903)
Assay: Efficacy against human recombinant GABAA alpha3 in combination with beta-3-gamma-2 expressed in L(tk-) cells by whole cell patch clamp method
Type: functional, cell-based
The answer is to be given in %; state only the numeric part.

GET /values?readout=Efficacy&item= "Cn1ncnc1COc1nn2c(-c3cc(F)ccc3F)nnc2cc1C(C)(C)C"
43

Repeat with "N#Cc1cc(F)ccc1-c1cc(-c2cnc3nc(C(F)(F)F)ccn23)ccc1F"
25

Repeat with "Cc1ccn2c(-c3cccc(-c4ccccc4C#N)c3)cnc2n1"
81

Repeat with "Cn1cnc(COc2nn3c(-c4ccccc4)nnc3c3c2C2CCC3CC2)n1"
55

Repeat with "N#Cc1ccccc1-c1cc(-c2cnc3nc(C(F)(F)F)ccn23)ccc1F"
43

* * *

Experiment: Oral bioavailability in dog
Type: ADME, organism-based, Canis lupus familiaris
Conditions: in vivo
measured.quantity: bioavailability (%)
The answer is to be given in %; state only the numeric part.

GET /values?readout=bioavailability&item= "N#Cc1cc(F)ccc1-c1cc(-c2cnc3nc(C(F)(F)F)ccn23)ccc1F"
29

Repeat with "CC(C)(O)c1ccn2c(-c3ccc(F)c(-c4cccnc4)c3)cnc2n1"
48

* * *

Target: GABA-A receptor; alpha-5/beta-3/gamma-2 (Homo sapiens) (UniProt P18507+P28472+P31644)
Experiment: Efficacy against human recombinant GABAA alpha5 in combination with beta3gamma2 expressed in L(tk-) cells by whole cell patch clamp method
Format: functional, cell-based
Give measured Efficacy for each item. Keep answers brief.
Give the figure together with its unit, number first.

Lab request: please report Efficacy under test system GABA-A receptor; alpha-5/beta-3/gamma-2 (Homo sapiens) (UniProt P18507+P28472+P31644) for "Cc1ccn2c(-c3cccc(-c4ccccc4C#N)c3)cnc2c1"
-14.6%

Repeat with "N#Cc1ccccc1-c1cc(-c2cnc3nc(C(F)(F)F)ccn23)ccc1F"
14%

Repeat with "Cn1ncnc1COc1nn2c(-c3cc(F)ccc3F)nnc2cc1C(C)(C)C"
39%

Repeat with "N#Cc1ccccc1-c1cccc(-c2cnc3nc(C(F)(F)F)ccn23)c1F"
18%

Repeat with "CCO/N=C(\C)c1ccc2c(c1)ncn2-c1cccc(-c2cccnc2)c1"
26%

* * *

Biological target: GABA-A receptor; alpha-1/beta-3/gamma-2 (Homo sapiens) (UniProt P14867+P18507+P28472)
Assay: Efficacy against human recombinant GABAA alpha-1 in combination with beta3gamma2 expressed in L(tk-) cells by whole cell patch clamp method
Type: functional, cell-based
Give measured Efficacy for each item. Keep answers brief.

Lab request: please report Efficacy under test system GABA-A receptor; alpha-1/beta-3/gamma-2 (Homo sapiens) (UniProt P14867+P18507+P28472) for "N#Cc1cc(F)ccc1-c1cc(-c2cnc3nc(C(F)(F)F)ccn23)ccc1F"
-2%

Repeat with "Cc1ccn2c(-c3cccc(-c4ccccc4C#N)c3)cnc2n1"
7%

Repeat with "N#Cc1ccccc1-c1cccc(-c2cnc3nc(C(F)(F)F)ccn23)c1F"
2%

Repeat with "Cn1ncnc1COc1nn2c(-c3cc(F)ccc3F)nnc2cc1C(C)(C)C"
2%

Repeat with "N#Cc1ccccc1-c1cccc(-c2cnc3nc(C(F)(F)F)ccn23)c1"
20%

Repeat with "Cc1ccn2c(-c3cccc(-c4ccccc4C#N)c3)cnc2c1"
-10%

Repeat with "Cn1cnc(COc2nn3c(-c4ccccc4)nnc3c3c2C2CCC3CC2)n1"
34%

Repeat with "N#Cc1cccc(F)c1-c1cc(-c2cnc3nc(C(F)(F)F)ccn23)ccc1F"
8%

* * *

Target: GABA-A receptor; alpha-5/beta-3/gamma-2 (Homo sapiens, UniProt P18507+P28472+P31644)
Sequence (P18507 whole entry): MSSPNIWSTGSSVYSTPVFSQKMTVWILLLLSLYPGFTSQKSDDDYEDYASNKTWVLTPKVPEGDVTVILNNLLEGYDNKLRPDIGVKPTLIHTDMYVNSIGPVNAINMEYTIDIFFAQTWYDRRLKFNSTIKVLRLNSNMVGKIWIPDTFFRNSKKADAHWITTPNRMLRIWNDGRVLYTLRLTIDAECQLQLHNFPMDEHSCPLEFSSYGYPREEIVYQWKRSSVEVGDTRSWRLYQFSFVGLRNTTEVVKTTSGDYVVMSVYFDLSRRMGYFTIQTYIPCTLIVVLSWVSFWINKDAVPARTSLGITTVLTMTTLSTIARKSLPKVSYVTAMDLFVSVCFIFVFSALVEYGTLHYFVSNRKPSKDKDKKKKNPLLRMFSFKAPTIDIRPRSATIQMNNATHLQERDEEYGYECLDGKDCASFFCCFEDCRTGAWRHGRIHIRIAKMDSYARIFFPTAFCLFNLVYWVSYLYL
Sequence (P28472 whole entry): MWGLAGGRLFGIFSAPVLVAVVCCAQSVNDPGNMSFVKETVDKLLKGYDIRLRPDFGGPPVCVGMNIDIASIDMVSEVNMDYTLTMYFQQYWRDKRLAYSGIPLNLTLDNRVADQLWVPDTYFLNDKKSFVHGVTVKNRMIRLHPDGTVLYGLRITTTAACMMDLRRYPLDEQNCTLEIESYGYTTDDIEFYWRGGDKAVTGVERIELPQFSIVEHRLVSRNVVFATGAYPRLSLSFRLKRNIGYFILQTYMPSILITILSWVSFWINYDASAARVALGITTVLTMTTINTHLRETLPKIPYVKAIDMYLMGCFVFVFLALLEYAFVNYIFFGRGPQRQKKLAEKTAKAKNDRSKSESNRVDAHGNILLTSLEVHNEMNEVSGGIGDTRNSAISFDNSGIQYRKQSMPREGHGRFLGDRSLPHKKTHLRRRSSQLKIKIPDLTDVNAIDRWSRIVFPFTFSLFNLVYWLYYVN
Sequence (P31644 whole entry): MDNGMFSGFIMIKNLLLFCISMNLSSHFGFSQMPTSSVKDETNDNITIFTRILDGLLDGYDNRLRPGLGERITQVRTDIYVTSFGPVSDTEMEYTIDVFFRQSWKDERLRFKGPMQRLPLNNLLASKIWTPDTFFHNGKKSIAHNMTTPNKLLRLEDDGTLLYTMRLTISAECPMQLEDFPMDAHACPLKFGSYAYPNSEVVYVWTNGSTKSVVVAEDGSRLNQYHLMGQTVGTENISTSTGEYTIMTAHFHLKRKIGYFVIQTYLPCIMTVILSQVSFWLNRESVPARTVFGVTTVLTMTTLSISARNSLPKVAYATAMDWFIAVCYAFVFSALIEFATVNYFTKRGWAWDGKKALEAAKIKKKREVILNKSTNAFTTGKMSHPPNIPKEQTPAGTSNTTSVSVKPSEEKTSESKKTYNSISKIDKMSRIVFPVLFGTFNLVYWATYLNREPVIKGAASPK
Assay: Displacement of [3H]Ro-151788 from human recombinant GABAA alpha5 in combination with beta3gamma2 expressed in L(tk-) cells
Type: cell-based
measured.quantity: pKi
For clarity, pKi is expressed as the negative log10 of concentration in mol/L.

GET /values?readout=pKi&item= "Cc1ccn2c(-c3cccc(-c4ccccc4C#N)c3)cnc2c1"
8.92

Repeat with "N#Cc1ccccc1-c1cccc(-c2cnc3nc(C(F)(F)F)ccn23)c1F"
9.03

Repeat with "c1ccc(-c2nnc3c4c(c(OCc5ccccn5)nn23)C2CCC4CC2)cc1"
9.00

Repeat with "N#Cc1ccccc1-c1cc(F)cc(-c2cnc3nc(C(F)(F)F)ccn23)c1"
8.80

Repeat with "CCO/N=C(\C)c1ccc2c(c1)ncn2-c1cccc(-c2cccnc2)c1"
8.80
